SYSTEM_TESTED: T1, PTPRG-Fc (ECD of human PTPRG, aa 20-736, fused to human Fc gamma 1) (human, UniProt P23470 20-736)
T1 construct: Made in-house in Expi293 cells; Used in ELISA and SPR; also called recombinant PTPRG-Fc; PTRPG; not shown: human IgG1 Fc (Fc gamma 1) after the hinge
T1 sequence: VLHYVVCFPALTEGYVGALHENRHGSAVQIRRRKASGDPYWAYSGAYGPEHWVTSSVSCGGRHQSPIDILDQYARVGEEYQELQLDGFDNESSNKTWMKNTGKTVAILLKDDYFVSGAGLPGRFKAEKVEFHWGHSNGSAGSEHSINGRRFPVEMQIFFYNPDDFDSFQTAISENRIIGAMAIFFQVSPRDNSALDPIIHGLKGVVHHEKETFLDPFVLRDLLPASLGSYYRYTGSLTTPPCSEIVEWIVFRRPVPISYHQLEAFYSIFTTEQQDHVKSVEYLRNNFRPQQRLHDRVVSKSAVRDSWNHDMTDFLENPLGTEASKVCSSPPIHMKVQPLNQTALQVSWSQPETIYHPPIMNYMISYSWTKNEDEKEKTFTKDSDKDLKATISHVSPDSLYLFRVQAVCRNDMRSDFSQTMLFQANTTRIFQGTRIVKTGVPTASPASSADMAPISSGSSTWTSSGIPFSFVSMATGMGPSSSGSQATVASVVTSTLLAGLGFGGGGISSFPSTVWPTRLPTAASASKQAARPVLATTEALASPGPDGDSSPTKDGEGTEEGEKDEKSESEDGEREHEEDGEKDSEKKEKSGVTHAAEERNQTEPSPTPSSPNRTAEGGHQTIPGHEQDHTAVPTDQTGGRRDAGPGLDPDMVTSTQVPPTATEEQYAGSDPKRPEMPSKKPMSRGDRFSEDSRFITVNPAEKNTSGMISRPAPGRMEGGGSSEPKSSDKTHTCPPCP
METHOD: SPR, Biacore X100; PTPRG-Fc captured by anti-human Fc on CM5, Fab injected; mean of triplicates (SD)
Catalogue of kon values
QUANTITY_NAME: kon (M⁻¹ s⁻¹)

[[record]]
binder = "HW-70 Fab (chimeric rabbit/human, His-tagged) (Fab, V domains shown, Monovalent Fab: rbVH-huCH1 and rbVL-huCL, His-tagged, made in E. coli from pET11a) VH: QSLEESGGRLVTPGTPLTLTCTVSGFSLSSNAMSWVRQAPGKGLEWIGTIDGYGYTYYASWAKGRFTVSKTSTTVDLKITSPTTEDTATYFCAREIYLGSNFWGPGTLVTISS VL: SFVLTQPASVQVNLGQTVSLTCTADTLSRRYASWYQQKPGQAPVLLIYRDTSRPSGVPDRFSGSSSGNTATLTISGAQAGDEADYYCATADGSGSSYQFVFGGGTQLTVT"
obs_value = 826000

[[record]]
binder = "HW-1 Fab (chimeric rabbit/human, His-tagged) (Fab, V domains shown, Monovalent Fab: rbVH-huCH1 and rbVL-huCL, His-tagged, made in E. coli from pET11a) VH: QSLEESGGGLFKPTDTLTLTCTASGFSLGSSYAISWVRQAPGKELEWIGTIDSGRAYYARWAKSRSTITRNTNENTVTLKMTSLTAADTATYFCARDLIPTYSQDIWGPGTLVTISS VL: SFVLTQPASVQVNLGQTVSLTCTADTLSRRYASWYQQKPGQAPVLLIYRDTSRPSGVPDRFSGSSSGNTATLTISGAQAGDEADYYCATSDGSGNSYQYVFGGGTQLTVT"
obs_value = 195000

[[record]]
binder = "HW-25 Fab (chimeric rabbit/human, His-tagged) (Fab, V domains shown, Monovalent Fab: rbVH-huCH1 and rbVL-huCL, His-tagged, made in E. coli from pET11a) VH: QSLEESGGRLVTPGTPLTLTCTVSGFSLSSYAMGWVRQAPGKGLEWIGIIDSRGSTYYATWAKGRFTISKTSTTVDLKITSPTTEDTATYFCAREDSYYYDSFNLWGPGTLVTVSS VL: SFVLTQPASVQVNLGQTVSLTCTADTLSRRYASWYQQKPGQAPVLLIYRDTSRPSGVPDRFSGSSSGNTATLTISGAQAGDEADYYCATSDGSGSSYQCVFGGGTQLTVT"
obs_value = 566000

[[record]]
binder = "HW-17 Fab (chimeric rabbit/human, His-tagged) (Fab, V domains shown, Monovalent Fab: rbVH-huCH1 and rbVL-huCL, His-tagged, made in E. coli from pET11a) VH: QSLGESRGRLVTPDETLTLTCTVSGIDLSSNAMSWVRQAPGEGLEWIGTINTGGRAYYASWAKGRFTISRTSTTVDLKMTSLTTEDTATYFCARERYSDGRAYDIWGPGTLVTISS VL: SFVLTQPASVQVNLGQTVSLTCTADTLSRRYASWYQQKPGQAPVLLIYTDSNRPSGIPDRFSGSSSGNTATLTISGAQAGDEADYYCATDDGSGSIYQYVFGGGTQLTVT"
obs_value = 169000

[[record]]
binder = "HW-42 Fab (chimeric rabbit/human, His-tagged) (Fab, V domains shown, Monovalent Fab: rbVH-huCH1 and rbVL-huCL, His-tagged, made in E. coli from pET11a) VH: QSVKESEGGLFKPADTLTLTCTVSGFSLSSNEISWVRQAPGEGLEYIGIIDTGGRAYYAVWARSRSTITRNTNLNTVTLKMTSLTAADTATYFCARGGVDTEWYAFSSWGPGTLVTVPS VL: SFVLTQPASVQVNLGQTVSLTCTADTLSRRYASWYQQKPGQAPVLLIFRDTSRPSGVPDRFSGSSSGDTATLTISGAQAGDEADYYCATSDGSGSNYQYVFGGGTQLTVT"
obs_value = 149000

